# Test system: STING (IFN-β in hPBMC)
# METHOD NOTES: hPBMC cytokine functional assay (IFN-β decrease after Baculovirus stimulation)
# Assay type: cell-based
# DETAILS: Homo sapiens, Baculovirus MOI 40, 24 hours, read-out: hPBMC_IC50
pIC50: −log10 of the molar value.
Short version: pIC50 at least 6 is label 1, less is label 0.

Identify whether the reported pIC50 of the following compound is 6 or greater: Cn1nc2cccc3c2c1CCCN(CCCc1ccccc1)C(=O)[C@@H]1C[C@@H](CN1c1ncnc2c1cnn2-c1ccc(F)cc1F)Oc1cccc-3n1
label 1

Please indicate if the recorded pIC50 for CN1CCCc2c3c(cccc3nn2C)-c2cncc(n2)N[C@H]2C[C@@H](C1=O)N(c1ncnc3c1cnn3-c1ccc(F)cc1F)C2 meets or exceeds 6.
label 1

Record Cn1nc2cccc3c2c1CCCN(CCCN1CCOCC1)C(=O)[C@@H]1C[C@@H](CN1c1ncnc2c1cnn2-c1ccc(F)cc1F)Oc1cccc-3c1 ; criterion: pIC50 no lower than 6. Met?
label 1

Decide: is the reported value of pIC50 for CN1CC2CC1CN2CCCN1CCCc2c3c(cccc3nn2C)-c2cccc(c2)O[C@H]2C[C@@H](C1=O)N(c1ncnc3c1cnn3-c1ccc(F)cc1F)C2 equal to or greater than 6?
label 0

Record Cn1nc2cccc3c2c1CCCNC(=O)[C@@H]1C[C@@H](CN1c1ncnc2c1cnn2-c1ccc(F)cc1F)Oc1cccc-3c1 ; criterion: pIC50 no lower than 6. Met?
label 1

I'd appreciate it if you could say whether Cn1nc2cccc3c2c1CCCN(CCCn1ccnc1)C(=O)[C@@H]1C[C@@H](CN1c1ncnc2c1cnn2-c1ccc(F)cc1F)Oc1cccc-3c1 has pIC50 at least equal to 6.
label 1
